molecular target: T1, HLA-A*02:01 (human); assay: UV-ligand exchange + anti-b2m ELISA; peptide exchange yield grade (+ >=10%, ++ >=20%, +++ >=50, ++++ >=75%)
T1 construct: MHC monomers first loaded with a UV-sensitive peptide (not identified) that is cleaved by UV light and exchanged for the test peptide; captured on streptavidin plates, detected with anti-β2m; also called peptide-receptive MHC molecules; MHC class I
Assay endpoint: peptide exchange yield

Below: 3 binders and their reported peptide exchange yield.
Consider ALLGIPLTL (source genes KCNK3, KCNK15) [ALLGIPLTL (SEQ ID NO: 45)] . Its measured peptide exchange yield is 50 to 75%

Consider KIPPVSPSI (source gene ARRDC3) [KIPPVSPSI (SEQ ID NO: 98)] . Its measured peptide exchange yield is 20 to 50%

Consider ALLDTVVQA (source genes CACNA1I, CACNA1H) [ALLDTVVQA (SEQ ID NO: 78)] . Its measured peptide exchange yield is 20 to 50%

Further cases:
Consider ILLDLEQAL (source gene CUL7) [ILLDLEQAL (SEQ ID NO: 29)] . Its measured peptide exchange yield is 50 to 75%
